tested on: CD4+ T cells; assay: Exogenous autologous healthy donor restimulation assay, TNFα and IFNγ production by CD4+ T cells; format: cell-based, human; conditions: maximum CD4+ T-cell response (TNFα and IFNγ), donor independent; peptide pool 10 μg/mL, healthy donors
Catalogue of Fold change (CD4+) vs. DMSO readings, one per entry.
ATTRIBUTE_MEASURED: Fold change (CD4+) vs. DMSO

In [3]: df
Out[3]:
                              sequence_chain  measured_result
 0  AKFWSDISINRAPSFG [AS94, alternative splicing, TTLL7]            62.53
 1  DLFDEFDNSRLVSRSWFFFYLRNKWNLALGF [AS24, alternative splicing, ST3GAL6]           613.88
 2  WTRPEKQELNSSCCSLIL [AS120, alternative splicing, NCAM1]             3.71
 3  GEVKWSVGSRTSLLL [FUS38, gene fusion CD79B-> GH1]             4.06
 4  MEPTTKRGPGGTMVSAAAPS [FUS52, gene fusion SELPLG-> TMEM119]            6.831
 5  FALMASLGIPQTMAA [FUS56, gene fusion ZNF772-> VN1R1]           115.03
 6  VAPSGLYYCG [FUS34, gene fusion CLN6-> CALML4]             8.33
 7  VEDEEKKEAGTHFIHLTGTTVSAGVPEEMPATTLRREVF [AS108, alternative splicing, ACIN1]           179.31
 8  LTALLLLASTPTP [AS18, alternative splicing, FCRLB]           12.922
 9  SSVTTHSSGNLRESPIYH [FUS32, gene fusion GANC-> CAPN3]             3.08
10  MDLTAIYEDSAGPLSHA [FUS54, gene fusion ZFP36-> PLEKHG2]             9.66
11  PPTAAASQTMQIFVKT [FUS31, gene fusion FOSB-> UBC]              0.7
12  ILAQKKKDELSS [AS93, alternative splicing, TJP1]              9.9
13  LGRLEEAKVPLKMLLF [AS122, alternative splicing, OGT]            13.71
14  CRERGLQEAEGDVAAL [FUS40, gene fusion KLF2-> TPM4]             1.26
15  SQKQPALKCLLRNNRP [AS84, alternative splicing, ANKRD36]            10.66
16  LGRLEEAKSFETEEN [AS121, alternative splicing, OGT]             1.41
17  ARHLLTLGTCGSTWP [FUS26, gene fusion P2RY6-> ARHGEF17]             2.46
18  DMEVFLKEASTNQHNTLIHLTLTFST [AS73, alternative splicing, SMC5]            72.58

###

system: CD4+ T cells; assay: Exogenous autologous healthy donor restimulation assay, TNFα and IFNγ production by CD4+ T cells; format: cell-based, human; conditions: maximum CD4+ T-cell response (TNFα and IFNγ), donor independent; peptide pool 10 μg/mL, healthy donors
Assign class by Fold change (CD4+) vs. DMSO: not lower than 4 means 1; lower than 4 means -1.

In [3]: df
Out[3]:
                              sequence_chain  label_class
 0  IMLIGNKSNCQKQLLRDMKILNEFYHGLILTLQLS [AS126, alternative splicing, RAB2B]            1
 1  SLLSLFPGKTVEITCLQHQKC [AS3, alternative splicing, BBS9]           -1
 2  RHQENVHTVLVHGKVKGLFYI [AS125, alternative splicing, PRDM5]            1
 3  SSLQEHRKLLS [AS52, alternative splicing, PRDM5]           -1
 4  IENEGGQVRSRPAPS [AS56, alternative splicing, ADGRE5]           -1
 5  AAGVVTEIEAAVKA [FUS17, gene fusion HBS1L-> ALDH8A1]           -1
 6  QLSVVTRDDYNSSELK [AS87, alternative splicing, BMP6]            1
 7  DLNQDGYNGNLNQSVEVIYVSSPLHKGDHACFKVFSMVCVGAVIITDF [AS64, alternative splicing, ITGA8]            1
 8  VAPSQSRQEECWRHKMSW [AS42, alternative splicing, LARP1B]           -1
 9  NASLHEVKDFFVPFPLPLLHLTSLKRNKLFN [AS110, alternative splicing, CCDC88A]            1
10  DVAVICSGRRSARDP [FUS4, gene fusion CD5L-> FCRL1]            1
11  RQLQQQLSSLSGPEGVPFLKLWCLDDLLSTLLGTCRCPSRAQF [FUS57, gene fusion MED12-> NLGN3]            1

###

tested on: CD4+ T cells; assay: Exogenous autologous healthy donor restimulation assay, TNFα and IFNγ production by CD4+ T cells; assay type: cell-based, human; design: unit not given here; details: maximum CD4+ T-cell response, donor independent; peptide pool 10 μg/mL, healthy donors
ATTRIBUTE_MEASURED: Frequency (TNFα+ IFNγ+ CD4 T cells)

>>> print(df.to_string())
                             sequence_chain  measured_result
0  QILQQALKKLPFSLCITECETIAYHLARDSNGNLEL [AS131, alternative splicing, USP25]            0.008
1  SRAPIKMSVLGQGHSRCLLHCLCLVAPMAFPVRLRVPCGG [AS16, alternative splicing, CAMSAP1]            0.011
2  QIIYDENRTMQIFVKT [FUS28, gene fusion NCOR2-> UBC]            0.009
3  DLFDEFDNSRLVSRSWFFFYLRNKWNLALGF [AS24, alternative splicing, ST3GAL6]             3.14

###

Entries annotated with measured Fold change (CD4+) vs. DMSO
test system: CD4+ T cells; assay: Exogenous autologous healthy donor restimulation assay, TNFα and IFNγ production by CD4+ T cells; format: cell-based, human; details: maximum CD4+ T-cell response (TNFα and IFNγ), donor independent; peptide pool 10 μg/mL, healthy donors
ATTRIBUTE_MEASURED: Fold change (CD4+) vs. DMSO

                              sequence_chain           attribute_measured  measured_result
 0  CEIMPLQSYILL [AS37, alternative splicing, FAM13A]  Fold change (CD4+) vs. DMSO          576.132
 1  AFIYHAFVGSTKTAWRTTL [FUS13, gene fusion KCNQ5-> KCNQ5-IT1]  Fold change (CD4+) vs. DMSO             8.79
 2  NAVRSYYEGTENIVAV [FUS18, gene fusion CADPS2-> RNF148]  Fold change (CD4+) vs. DMSO             0.95
 3  GGPPFVGPLRGPRAQPSLSGLCGRRTGSRDTIKIPGQT [FUS42, gene fusion RBM42-> ETV2]  Fold change (CD4+) vs. DMSO             9.54
 4  QILQQALKKLPFSLCITECETIAYHLARDSNGNLEL [AS131, alternative splicing, USP25]  Fold change (CD4+) vs. DMSO            10.53
 5  TSTSPKFPVFIFRLVCWVRTELVLR [AS47, alternative splicing, NRG3]  Fold change (CD4+) vs. DMSO            1.907
 6  KKEDVNFQVKQLIH [AS96, alternative splicing, ANKRD28]  Fold change (CD4+) vs. DMSO             5.47
 7  GEPGEDAGIGRPEEREREEEMADQ [AS135, alternative splicing, ZBP1]  Fold change (CD4+) vs. DMSO             3.73
 8  EGTPFEDGKSYSLCFL [AS78, alternative splicing, UBE2B]  Fold change (CD4+) vs. DMSO             3.14
 9  PRDNHTDHENPRGSDGQGRWKCPSQVTYIRRTLM [FUS16, gene fusion UBE2J1-> GABRR2]  Fold change (CD4+) vs. DMSO            4.388
10  YGVYVINQKGHSGCIWSMDGEGRLETAWPVWKRGRCPGKRR [AS15, alternative splicing, B4GALT2]  Fold change (CD4+) vs. DMSO         2469.136
11  KRYGCVFQVSIRHLSFPVTDILP [AS77, alternative splicing, TRAF3]  Fold change (CD4+) vs. DMSO            7.547
12  IIMALAILDLFAVLKIEAHKQLLLKSFCYGAGK [AS113, alternative splicing, CLCC1]  Fold change (CD4+) vs. DMSO              5.7
13  LDQCVETLCSLSKSD [FUS44, gene fusion ZGPAT-> LIME1]  Fold change (CD4+) vs. DMSO              4.8
14  TVPASQKLSCSLDPKHLRQFHL [AS30, alternative splicing, BLNK]  Fold change (CD4+) vs. DMSO             2.23
15  RSISLHKSDPSLLSPN [AS25, alternative splicing, TBCEL]  Fold change (CD4+) vs. DMSO            57.01
16  LQAILQPGNFILVNEI [AS5, alternative splicing, C3orf79]  Fold change (CD4+) vs. DMSO            19.14
17  SRAPIKMSVLGQGHSRCLLHCLCLVAPMAFPVRLRVPCGG [AS16, alternative splicing, CAMSAP1]  Fold change (CD4+) vs. DMSO           15.062
18  ARWFTREQGSEN [FUS12, gene fusion NUDT12-> LINC02115]  Fold change (CD4+) vs. DMSO             2.77
19  PPTAAASQTCLELER [FUS21, gene fusion FOSB-> KLF6]  Fold change (CD4+) vs. DMSO             8.08
20  QILEQPKQVRLKGWDFKC [AS68, alternative splicing, NFKB1]  Fold change (CD4+) vs. DMSO            21.77
21  VYYLYKNVAYKGSDID [AS86, alternative splicing, ATP10B]  Fold change (CD4+) vs. DMSO            12.54
22  GEKILFIRVKFYFSLILFLWEDSEFELGEI [AS9, alternative splicing, GAS2]  Fold change (CD4+) vs. DMSO           20.874
23  LLPPGQESAIIGPPGMQ [FUS45, gene fusion IFNAR2-> IL10RB]  Fold change (CD4+) vs. DMSO            10.56
24  GFFETEMAVPFFSRKIRKVRRAIMKWTFCCYFY [AS118, alternative splicing, IARS]  Fold change (CD4+) vs. DMSO            7.692
25  IEKSISARITEQ [FUS36, gene fusion TNFRSF17-> SNX29]  Fold change (CD4+) vs. DMSO             4.69
26  IDPSSPLHTYYERITKGRNPERRYMKPERISPGHEAMEKNLEDNL [AS129, alternative splicing, TET1]  Fold change (CD4+) vs. DMSO             9.79
27  SEMVAHERYVFEATGNDSFRTLCLLMK [AS112, alternative splicing, CFAP54]  Fold change (CD4+) vs. DMSO             7.92
